Tested on: Giardia duodenalis
Experiment: In vitro giardicidal susceptibility assay (trophozoite growth inhibition)
Format: cell-based, Giardia duodenalis (G. intestinalis strain IMSS:0696:1)
Details: CC50 VERO cells / IC50 G. duodenalis
Description: G. intestinalis strain IMSS:0696:1 and T. vaginalis strain GT3 were cultured in TYI-S-33 medium, complemented with 10% calf serum and bovine bile. […] Subsequently, trophozoites were washed and subcultured for another 48 h in fresh medium without any drugs. Once this time was reached, trophozoites were counted and the median inhibitory concentration (IC50) was calculated. All the experiments were completed in triplicate.
# maps each entry to its SI = CC50/IC50 G. duodenalis

For orientation, consider the following solved cases.
{"compound": "Cc1ncc([N+](=O)[O-])n1CC(C)OC(=O)Nc1ccccc1 (stereo not drawn) [Compound 7]", "target": "Giardia duodenalis", "SI = CC50/IC50 G. duodenalis": ">59"}
{"compound": "Cc1ncc([N+](=O)[O-])n1CCOC(=O)NC1CCCCC1 [Compound 1]", "target": "Giardia duodenalis", "SI = CC50/IC50 G. duodenalis": ">217"}

// below: SI = CC50/IC50 G. duodenalis requested for another compound
Ask | Reported SI = CC50/IC50 G. duodenalis, compound Cc1ncc([N+](=O)[O-])n1CC(C)OC(=O)Nc1ccc([N+](=O)[O-])cc1 (stereo not drawn) [Compound 10] : ____
Reply | >116
